So I've got a bunch of sequences here, and I need their PBM binding z-score values.
- System: RARb:RXRa (NR concentration 270 nM, RXRa partner concentration 90 nM)
- EXPERIMENTAL PROTOCOL: PBM binding z-score (relative to random genomic background probes); higher = stronger binding; sequences stand for … in GC…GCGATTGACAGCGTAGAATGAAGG

Query: Entry CGAACCAGGTCAAAGGACAGTGAAAGGCGACGTA needs its PBM binding z-score filled in; supply it.
Response: 3.86

Query: Entry CGTCCAAGGTCATAGGAGGTCATTGAAGACAGAT needs its PBM binding z-score filled in; supply it.
Response: 5.47

Query: Entry TCTTGTAGGTCAAAGGTTAAGAAAGCCGAAGCCT needs its PBM binding z-score filled in; supply it.
Response: 5.12

Query: Entry CTATGTATGTTAAGGGGGTCATTCAGTTTGAAAG needs its PBM binding z-score filled in; supply it.
Response: 3.74

Query: Entry CGAAATAGGTCAAAGGACAGTGAAAGGCGACGTA needs its PBM binding z-score filled in; supply it.
Response: 4.49

Query: Entry ATCTGTAGGTTAGGGTCATTCAGAAAGTAGGGAA needs its PBM binding z-score filled in; supply it.
Response: 3.58

Query: Entry AGCTCTAGGTAAAAGTTCAGTGAATCCCGAGGAT needs its PBM binding z-score filled in; supply it.
Response: 2.4

Query: Entry CAAGCTAGGTCAAAGGTCAAAGTCGAGCCAACCA needs its PBM binding z-score filled in; supply it.
Response: 6.05

Query: Entry CTATGTAGGTTAAGGGGGTTATTCAGTTTGAAAG needs its PBM binding z-score filled in; supply it.
Response: 2.24

Query: Entry ATCGAATGGTCGAGGTGAGTATAGAGAAAGGGAA needs its PBM binding z-score filled in; supply it.
Response: 0.541

Query: Entry CAAACTAGGTCAAGAGGTCAAAGGCCGCTTCCCG needs its PBM binding z-score filled in; supply it.
Response: 5.58

Query: Entry CCGAGTAGATTACGAGGGGGCATTCAGTGCGAAT needs its PBM binding z-score filled in; supply it.
Response: 0.973

Query: Entry TCCAGTAGGTTACGGGGGCATTCAGGGATGAAGA needs its PBM binding z-score filled in; supply it.
Response: 2.97

Query: Entry CGTACTAGGTCACCAGGACAGTGAAGAGGTTGGA needs its PBM binding z-score filled in; supply it.
Response: 4.19

Query: Entry AGATTGAGGTTACCAAAGATCAGGGAAACGCTTG needs its PBM binding z-score filled in; supply it.
Response: 2.24

Query: Entry AGAATGGGGTTATTAAGATCAGGGAATTGCGGTC needs its PBM binding z-score filled in; supply it.
Response: 1.77

Query: Entry CTATGTAGGTTAACGGGGTCATTCAGTTTGAAAG needs its PBM binding z-score filled in; supply it.
Response: 3.57

Query: Entry CGAACGAGGTCAGAACAGGACAGTGAAGGATGAT needs its PBM binding z-score filled in; supply it.
Response: 4.4

Query: Entry ATATGTAGGTTAGTGTCATTCAGAAAGTAGGGAA needs its PBM binding z-score filled in; supply it.
Response: 1.4

Query: Entry TCGAGTAGGTAACGGGGGCATTCAGGGATGAAGA needs its PBM binding z-score filled in; supply it.
Response: 1.74

Query: Entry ATGTGTAGGTTACATCCGGGTCATTCAGGCTATG needs its PBM binding z-score filled in; supply it.
Response: 2.37

Query: Entry ATATGTAGGTCAGGGTCATTCAGAAAGTAGGGAA needs its PBM binding z-score filled in; supply it.
Response: 4.49

Query: Entry GATACAGGGTCATCTAGAGGCCAGAGTATGGAAA needs its PBM binding z-score filled in; supply it.
Response: 4.48

Query: Entry TTACCAAAGTGAAAGGTCGTTGATGCACGCCTTG needs its PBM binding z-score filled in; supply it.
Response: 1.86

Query: Entry CGAACTAGGTCAAAGGCCAGTGAAAGGCGACGTA needs its PBM binding z-score filled in; supply it.
Response: 3.87

Query: Entry AATACAGGGTGATCGTAGGCCAGAGTACGCACAG needs its PBM binding z-score filled in; supply it.
Response: 0.432

Query: Entry TAGCCTAGGTCATTTGGCCAGTATAGTACGCATC needs its PBM binding z-score filled in; supply it.
Response: 3.67

Query: Entry CCGAGTAGGTTACGAGGGGGCAATCAGTGCGAAT needs its PBM binding z-score filled in; supply it.
Response: 2.16

Query: Entry TCTGCTTGGTCAACGATGGTCAGCTAATCTGCTA needs its PBM binding z-score filled in; supply it.
Response: 1.17

Query: Entry CGAACTAGGTCAAAGGACAGTGTAAGGCGACGTA needs its PBM binding z-score filled in; supply it.
Response: 3.91

Query: Entry CCTCCAAGGTCATAGGAGGTCAGTGAAGACAGAT needs its PBM binding z-score filled in; supply it.
Response: 5.09

Query: Entry CCGAGTATGTTACGAGGGGGCATTCAGTGCGAAT needs its PBM binding z-score filled in; supply it.
Response: 1.15

Query: Entry TAGCCAAGGTCAGATCGGGCCAGTATACGCTATA needs its PBM binding z-score filled in; supply it.
Response: 4.3

Query: Entry ATATGTAGGTTAGGGTCTTTCAGAAAGTAGGGAA needs its PBM binding z-score filled in; supply it.
Response: 0.945

Query: Entry AAAATGAGGTTAAGATCAGGGAAACAGAATACAT needs its PBM binding z-score filled in; supply it.
Response: 2.04

Query: Entry TCTCGGAGGACACGAAGGTCAAAGCTTTCCAGAG needs its PBM binding z-score filled in; supply it.
Response: 3.66

Query: Entry CGAACTAGGTCACCAGGACAGTGGAGAGGTTGGA needs its PBM binding z-score filled in; supply it.
Response: 4.39

Query: Entry GCTGCTAGGTCAACTGAGGGTCAGCTAAAGCTCG needs its PBM binding z-score filled in; supply it.
Response: 4.83

Query: Entry CGTCCAAGGTCAAAGGTCACTGAAGAGATGACGG needs its PBM binding z-score filled in; supply it.
Response: 5.96

Query: Entry TCTCGGAGGACACGAAGGTCAGCGCTTTCCAGAG needs its PBM binding z-score filled in; supply it.
Response: 3.95

Query: Entry CGTCCAAGGTCATAGGAGGTCACTGAAGACAGAT needs its PBM binding z-score filled in; supply it.
Response: 5.39

Query: Entry TCGAGTAGGTTACGGGGGCATTCATGGATGAAGA needs its PBM binding z-score filled in; supply it.
Response: 2.51

Query: Entry CCTACTGGGCCATTCAGAGGTTATTGATCATATG needs its PBM binding z-score filled in; supply it.
Response: 0.712

Query: Entry CAAACTAGGTCACAGAGGTCAAAGTTCGTGCGTA needs its PBM binding z-score filled in; supply it.
Response: 5.29

Query: Entry CTATATAGGTTAAGGGGGTCATTCAGTTTGAAAG needs its PBM binding z-score filled in; supply it.
Response: 3.91

Query: Entry TAGCCTAGGTCATGGGCCTGTATACCACGCGAAC needs its PBM binding z-score filled in; supply it.
Response: 3.97

Query: Entry CCGACTAGGTTACGAGGGGGCATTCAGTGCGAAT needs its PBM binding z-score filled in; supply it.
Response: 2.02

Query: Entry ATATGTAGGTTAGGGTCATTGAGAAAGTAGGGAA needs its PBM binding z-score filled in; supply it.
Response: 3.59

Query: Entry TCGAGTAGGTTACGGCGGCATTCAGGGATGAAGA needs its PBM binding z-score filled in; supply it.
Response: 0.794

Query: Entry CCGTACGGGTCAAGGTTATAGCACGGGTGGTACG needs its PBM binding z-score filled in; supply it.
Response: 4.09

Query: Entry TAGCCTAGGTCATTCAGGCGCCAGTATAGAAAGC needs its PBM binding z-score filled in; supply it.
Response: 3.56
